Target: Estrogen receptor (Mus musculus) (UniProt O08537+P19785)
Sequence (O08537 whole entry, looked up): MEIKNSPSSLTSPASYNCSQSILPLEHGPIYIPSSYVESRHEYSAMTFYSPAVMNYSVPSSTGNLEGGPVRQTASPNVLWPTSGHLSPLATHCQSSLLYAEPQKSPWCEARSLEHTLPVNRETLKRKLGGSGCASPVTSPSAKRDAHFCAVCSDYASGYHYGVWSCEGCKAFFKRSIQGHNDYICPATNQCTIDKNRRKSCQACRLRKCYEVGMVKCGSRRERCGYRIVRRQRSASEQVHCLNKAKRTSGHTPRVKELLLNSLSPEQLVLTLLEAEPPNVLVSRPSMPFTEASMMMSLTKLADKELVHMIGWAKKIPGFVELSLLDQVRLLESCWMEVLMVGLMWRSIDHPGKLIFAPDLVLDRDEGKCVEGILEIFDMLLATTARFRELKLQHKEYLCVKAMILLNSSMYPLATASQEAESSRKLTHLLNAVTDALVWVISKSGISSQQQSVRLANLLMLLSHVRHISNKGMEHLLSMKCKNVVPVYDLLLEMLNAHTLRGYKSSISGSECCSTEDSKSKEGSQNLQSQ
Sequence (P19785 whole entry, looked up): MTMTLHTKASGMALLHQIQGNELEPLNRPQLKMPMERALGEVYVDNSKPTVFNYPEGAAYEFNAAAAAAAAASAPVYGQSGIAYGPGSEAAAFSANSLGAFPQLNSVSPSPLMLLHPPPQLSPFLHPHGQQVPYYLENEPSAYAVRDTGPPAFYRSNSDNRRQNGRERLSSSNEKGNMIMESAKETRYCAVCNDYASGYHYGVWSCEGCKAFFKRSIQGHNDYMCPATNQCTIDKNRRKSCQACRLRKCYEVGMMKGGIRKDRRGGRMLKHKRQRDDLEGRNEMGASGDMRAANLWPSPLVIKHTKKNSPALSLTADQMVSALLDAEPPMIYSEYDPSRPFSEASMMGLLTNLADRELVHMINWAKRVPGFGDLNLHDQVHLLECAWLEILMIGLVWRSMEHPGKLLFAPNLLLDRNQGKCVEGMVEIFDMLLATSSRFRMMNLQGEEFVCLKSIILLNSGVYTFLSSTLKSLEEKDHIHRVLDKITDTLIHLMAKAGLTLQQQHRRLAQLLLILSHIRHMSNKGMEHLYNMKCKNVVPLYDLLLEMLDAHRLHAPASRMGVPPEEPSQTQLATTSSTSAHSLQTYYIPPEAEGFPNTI
Experiment: Estrogenic effect in uterotrophic assay in immature mice at 25 ug dose
Assay type: functional
READOUT: Activity

COMPOUND	RESULT NUMBER
CC(=O)Oc1ccc(C(=Cc2ccccc2)c2ccc(OC(C)=O)cc2)cc1	99
CCC(c1ccccc1)C(c1ccc(OC(C)=O)cc1)c1ccc(OC(C)=O)cc1 (stereo not drawn)	79
CC(=O)Oc1ccc(C(=C(c2ccccc2)C(C)C)c2ccc(OC(C)=O)cc2)cc1	100
CC(=O)Oc1ccc(C(=C(CC(F)(F)F)c2ccccc2)c2ccc(OC(C)=O)cc2)cc1	108
CCCC(=C(c1ccc(OC(C)=O)cc1)c1ccc(OC(C)=O)cc1)c1ccccc1	90
CCC(=C(c1ccc(OC(C)=O)cc1)c1ccc(OC(C)=O)cc1)c1ccccc1	98

[P] CC(=O)Oc1ccc(C(=C(C)c2ccccc2)c2ccc(OC(C)=O)cc2)cc1
[Q] CCC1(c2ccccc2)OC1(c1ccc(OC(C)=O)cc1)c1ccc(OC(C)=O)cc1 (stereo not drawn)
Query: When the recorded Activity values are compared, which is smaller: that of P or that of Q ? I would appreciate it if you answered with the label of your choice.
Response: Q
(Q: 33, P: 83)
